molecular target: T1, APP-Avi-soluble cynomolgus monkey LOX-1 (61-273) (cynomolgus monkey, biotinylated at the Avi tag when immobilised in the SET assay); test: SPR Biacore T200, antibody captured by anti-human IgG, cynomolgus soluble LOX-1 as analyte, 1:1 model
T1 construct: Expressed and purified in the same way as the human protein; also called cynomolgus monkey soluble LOX-1; Cynomolgus Monkey Soluble APP-Avi-LOX-1
T1 sequence (chain, as listed by the source): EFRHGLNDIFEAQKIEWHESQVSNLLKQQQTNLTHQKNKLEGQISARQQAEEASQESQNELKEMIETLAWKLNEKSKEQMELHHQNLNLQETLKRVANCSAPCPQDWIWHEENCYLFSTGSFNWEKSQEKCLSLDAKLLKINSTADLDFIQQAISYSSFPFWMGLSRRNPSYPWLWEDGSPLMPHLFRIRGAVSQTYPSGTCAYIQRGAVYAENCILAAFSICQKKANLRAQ
assayEndpoint: kon (M⁻¹ s⁻¹)
Field: numeric (M⁻¹ s⁻¹). Do not append units.

Q: Any idea what kon was measured for FF5 (antibody, human IgG1, kappa, L234A L235A, V domains shown, Humaneered variant of E2E10, tested as full human IgG; Biotinylated for the neutrophil assay; also called LLG787; LLG787 (FF5)) VH: QVQLVQSGAEVKKPGASVKVSCKASGYTFTDYEVHWVRQAPGQGLEWMGAIHPGSGGAAYVQKFQGRVTMTRDTSISTAYMELSRLRSDDTAVYYCARWLPMDYWGQGTLVTVSS VL: DIQMTQSPSSVSASVGDRVTITCRASQGINNWLVWYQQKPGKAPKLLLYAASRLESGVPSRFSGSGSGTDYTLTISSLQPEDIATYYCQQYLITPYTFGQGTKLEIKR ?
Ans: 1.4e+06

Q: For the binder shown here, FF4 (antibody, human IgG1, kappa, L234A L235A, V domains shown, Humaneered variant of E2E10, tested as full human IgG; the text and claims pair heavy chain 56 with light chain 66; Biotinylated for the neutrophil assay; also called LLG786; LLG786 (FF4)) VH: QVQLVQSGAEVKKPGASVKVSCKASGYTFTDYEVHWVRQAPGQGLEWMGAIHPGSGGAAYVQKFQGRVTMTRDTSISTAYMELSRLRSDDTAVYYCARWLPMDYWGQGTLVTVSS VL: DIQMTQSPSSVSASVGDRVTITCRASQGITNWLAWYQQKPGKAPKLLIYAASILESGVPSRFSGSGSGTDYTLTISSLQPEDIATYYCQQYLITPYTFGQGTKLEIKR , give the reported kon.
Ans: 2.1e+06

Q: Need kon of FF6 (antibody, human IgG1, kappa, L234A L235A, V domains shown, Humaneered variant of E2E10, tested as full human IgG; Biotinylated for the neutrophil assay; also called LLG788; LLG788 (FF6)) VH: QVQLVQSGAEVKKPGASVKVSCKASGYTFTDYEVHWVRQAPGQGLEWMGAIHPGSGGAAYVQKFQGRVTMTRDTSISTAYMELSRLRSDDTAVYYCARWLPIDYWGQGTLVTVSS VL: DIQMTQSPSSVSASVGDRVTITCRASQGINNWLVWYQQKPGKAPKLLLYAASRLESGVPSRFSGSGSGTDYTLTISSLQPEDIATYYCQQYLITPYTFGQGTKLEIKR , thanks.
Ans: 950000

Q: # get_value(readout='kon', item= FF3 (antibody, human IgG1, kappa, L234A L235A, V domains shown, Humaneered variant of E2E10, tested as full human IgG; Biotinylated for the neutrophil assay; also called LLG785; LLG785 (FF3)) VH: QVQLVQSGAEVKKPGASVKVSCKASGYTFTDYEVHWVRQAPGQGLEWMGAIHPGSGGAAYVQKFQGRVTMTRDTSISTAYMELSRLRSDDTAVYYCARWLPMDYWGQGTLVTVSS VL: DIQMTQSPSSVSASVGDRVTITCRASQGINNWLVWYQQKPGKAPKLLIYAASSLQSGVPSRFSGSGSGADYTLTISSLQPEDFATYYCQQYLITPYTFGQGTKLEIKR )
Ans: 770000

Q: Field request: kon | item: FF1 (antibody, human IgG1, kappa, L234A L235A, V domains shown, Humaneered variant of E2E10, tested as full human IgG (captured or detected with anti-human IgG); Biotinylated for the neutrophil assay; also called LLG783; LLG783 (FF1)) VH: QVQLVQSGAEVKKPGASVKVSCKASGYTFTDYEVHWVRQAPGQGLEWMGAIHPGSGGAAYVQKFQGRVTMTRDTSTSTAYMELSSLRSDDTAVYYCARWLPMDYWGQGTLVTVSS VL: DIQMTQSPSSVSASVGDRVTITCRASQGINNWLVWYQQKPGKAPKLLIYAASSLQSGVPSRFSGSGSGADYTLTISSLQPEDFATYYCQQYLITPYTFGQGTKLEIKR
Ans: 1.1e+06
